This collection of values is drawn from PubChem BioAssay (NCI).

Tested on: OVCAR-3 ovarian
Assay Procedure: NCI-60 one-dose screen, 48 h
Experimental Setup: 10 µM unless noted
The panel holds about 83,000 compounds, 20% with a hit somewhere; the sample as a whole holds those more often. Activity calls are given as the source filed them. Rule for the calls: active = growth percent below 10; inactive = the rest.
Answer with one of the outcomes given here: T (active), F (inactive)

| Compound | Assigned Label |
| --- | --- |
| COc1cc(/C=C/C(=O)c2ccc(C(F)(F)F)cc2)ccc1Oc1nc(NCCO)nc(N2CCOCC2)n1 | F |
| COc1cccc(NC2=CC(=O)C(C)=C(C)C2=O)c1 | T |
| O=C1Nc2cc(Cl)ccc2/C1=C\c1ccc(OCc2ccc(Br)cc2F)cc1 | T |
| N#Cc1nc(-c2ccccc2)oc1N1CCC(CO)C1 (stereo not given) | F |

Please find the next compound below.
**Query** Per the assay record, what outcome was assigned to `COc1ccc(C(=O)/C=C/c2ccc(OCc3ccc(C)cc3)c(OC)c2)cc1OC` ?
**Result** F

###

Listed below: growth values for each entry.
Test system: COLO 205 colon
Assay Procedure: NCI-60 one-dose screen, 48 h (100 = growth as untreated, 0 = no growth, -100 = all killed)
Experimental Setup: 10 µM unless noted
The panel holds about 83,000 compounds, 20% with a hit somewhere; the sample as a whole holds those more often.
Report the figure in % without appending any unit label.

Before answering, review these 3 worked examples.
| Chem Smiles | Readout Type | Unit Text | Number |
| --- | --- | --- | --- |
| Nc1cc(-c2c[nH]c3ccc(Cl)cc23)nc2cc(-c3c[nH]c4ccc(Cl)cc34)nn12 | growth | % | 93.2 |
| Cc1ccc(/C=C/c2nn3c(-c4ccco4)nnc3s2)cc1C | growth | % | 126 |
| O=C(Nc1nc2ccc(O)cc2s1)c1cccc(C(F)(F)F)c1 | growth | % | 107 |

Could you now look at the following molecule, please?
**Query** Any idea what growth was measured for `COc1ccc(Cc2nn(CC(=O)N/N=C/c3ccc(Cl)cc3)c(=O)c3c(C)noc23)cc1` ?
**Result** 102

###

Tested on: COLO 205 colon
Assay Procedure: NCI-60 one-dose screen, 48 h (100 = growth as untreated, 0 = no growth, -100 = all killed)
Experimental Setup: 10 µM unless noted
Compounds without any hit were thinned out: in the full panel of roughly 83,000, 20% have a hit.
Readout Type: growth (%)
State the answer as a number, implicitly in %.

**Query** # query: growth of entry CN1C(=O)N(c2ccccc2)C2N=C(N/N=C/c3ccccc3)SC21 (stereo not given)
**Result** 3.78

**Query** Find the recorded growth belonging to `COc1ccc(/C=N/Nc2ccnc3cc(Cl)ccc23)cc1Cl` and report it.
**Result** -82.7

**Query** Find the recorded growth belonging to `O=C(O)CCCCCN1C(=O)/C(=C/c2ccc(O)c(O)c2)SC1=S` and report it.
**Result** 125

**Query** Please look up its growth: `N#Cc1c(-c2ccc(Cl)cc2)nc2c(-c3ccccc3)c(Nc3ccccc3)nn2c1N`
**Result** 57

**Query** Given the entry `CCCCCCNC(=O)Oc1ccc(/C(=C(/C)c2ccccc2)c2ccc(OCCN3CCCCCC3)cc2)cc1` , report its measured growth.
**Result** 21.7

**Query** Fill in: growth of O=C(c1ccc(O)cc1)C1[C@H](c2ccc(Cl)cc2)[C@@H](c2ccccc2)NC12C(=O)Nc1ccc(Cl)cc12 (stereo not given in full) is ___
**Result** 61

**Query** Looking for the measured growth of `CCN1CCN(/C(=N\c2sc(-c3ccccc3)nc2-c2ccccc2)c2ccccc2)CC1` , can you help?
**Result** 84.5

**Query** Can you look up the measured growth of Cc1cc(C(NC(=O)CCCCCNc2cccc3c2C(=O)N(C2CCC(=O)NC2=O)C3=O)c2cccnc2)c(O)c2ncccc12 (stereo not given) for me?
**Result** 2.37

**Query** So what's the measured growth for this one? `COc1ccc(-n2c(SCC(=O)Nc3ccc(-c4nc5ccccc5[nH]4)cc3)nc3ccccc3c2=O)cc1`
**Result** 77.5

**Query** For the molecule `COc1cccc(COc2ccc(/C=C3/C(=O)Nc4cc(Cl)ccc43)cc2)c1` , what growth is on record?
**Result** 102

**Query** Consider the molecule `N#Cc1nc(-c2ccccc2)oc1S(N)(=O)=O` and give its measured growth.
**Result** 96.7

**Query** // lookup growth for `COc1cc(N=Cc2sc(Nc3nccs3)nc2O)cc(OC)c1OC`
**Result** 99.6

**Query** Look up growth for this molecule: `CCOC(=O)c1c(Nc2ccccc2)nn2c(N)c(C#N)c(-c3ccc(OC)cc3)nc12`
**Result** 96.3

**Query** Which growth value is on record for `Cc1cc(C(=O)Nc2sc3c(c2C(N)=O)CCC(=O)C3)ccc1OCCN1CCCCC1` ?
**Result** 106

**Query** Entry `NC(=O)c1c(NC(=O)c2ccc(C3CCCCC3)cc2)sc2c1CCC(=O)C2` has what growth?
**Result** -36.1

**Query** Give its growth value. Item: `N#Cc1nc(-c2ccccc2)oc1N1CC[C@@H](CO)C1`
**Result** 106

**Query** What value of measured growth is listed for `Cn1c(SCC(=O)c2cccs2)nc2ccccc2c1=O` ?
**Result** 111

**Query** // growth lookup, key: `CC(=O)c1ccc(Nc2nc(SC(C)C)nc(-c3ccccc3)c2C#N)cc1`
**Result** 114

**Query** Reported growth, molecule COc1cc2nc(-c3ccc(C(F)(F)F)cc3)cc(OCCCNCC3CCCO3)c2cc1OC (stereo not given) : ____
**Result** 23.3

**Query** Please report the recorded growth for `CN(C)CCCNc1c2ccccc2nc2c1oc1ccc(Cl)cc12` .
**Result** 14.5

**Query** Fill in the blank: the reported growth of `OC1CCN(CCCOc2c3ccc(Cl)cc3nc3c2oc2ccc(Cl)cc23)CC1` is ____.
**Result** -11.1

**Query** What value of growth has been recorded for this entry: `CC1=C(C)C(=O)C(Nc2ccccc2)=C(Cl)C1=O`
**Result** 107

**Query** Query: growth; subject: `O=c1[nH]c2ccc(Cl)cc2cc1CSc1ccccc1Nc1nccc(-c2ccc(Cl)cc2)n1`
**Result** 116

**Query** Requested field: growth. Item: `Clc1ccc2c(OCCCN3CCOCC3)c3oc4ccccc4c3nc2c1`
**Result** 12.8

**Query** Please give the measured growth for this molecule: `CC(C)(O)c1cncc(-c2ccc3ncnc(N4CCc5cc(F)c(Cl)cc54)c3c2)c1`
**Result** 30.1

**Query** I have this molecule here, `Clc1ccc2oc3c(NCCCn4ccnc4)c4ccccc4nc3c2c1` , and I need its recorded growth.
**Result** 55.2
